Entries and their measured Kd follow.
Target: human integrin αvβ5 (Homo sapiens, UniProt P06756+P18084)
Sequence (P06756 31-1048): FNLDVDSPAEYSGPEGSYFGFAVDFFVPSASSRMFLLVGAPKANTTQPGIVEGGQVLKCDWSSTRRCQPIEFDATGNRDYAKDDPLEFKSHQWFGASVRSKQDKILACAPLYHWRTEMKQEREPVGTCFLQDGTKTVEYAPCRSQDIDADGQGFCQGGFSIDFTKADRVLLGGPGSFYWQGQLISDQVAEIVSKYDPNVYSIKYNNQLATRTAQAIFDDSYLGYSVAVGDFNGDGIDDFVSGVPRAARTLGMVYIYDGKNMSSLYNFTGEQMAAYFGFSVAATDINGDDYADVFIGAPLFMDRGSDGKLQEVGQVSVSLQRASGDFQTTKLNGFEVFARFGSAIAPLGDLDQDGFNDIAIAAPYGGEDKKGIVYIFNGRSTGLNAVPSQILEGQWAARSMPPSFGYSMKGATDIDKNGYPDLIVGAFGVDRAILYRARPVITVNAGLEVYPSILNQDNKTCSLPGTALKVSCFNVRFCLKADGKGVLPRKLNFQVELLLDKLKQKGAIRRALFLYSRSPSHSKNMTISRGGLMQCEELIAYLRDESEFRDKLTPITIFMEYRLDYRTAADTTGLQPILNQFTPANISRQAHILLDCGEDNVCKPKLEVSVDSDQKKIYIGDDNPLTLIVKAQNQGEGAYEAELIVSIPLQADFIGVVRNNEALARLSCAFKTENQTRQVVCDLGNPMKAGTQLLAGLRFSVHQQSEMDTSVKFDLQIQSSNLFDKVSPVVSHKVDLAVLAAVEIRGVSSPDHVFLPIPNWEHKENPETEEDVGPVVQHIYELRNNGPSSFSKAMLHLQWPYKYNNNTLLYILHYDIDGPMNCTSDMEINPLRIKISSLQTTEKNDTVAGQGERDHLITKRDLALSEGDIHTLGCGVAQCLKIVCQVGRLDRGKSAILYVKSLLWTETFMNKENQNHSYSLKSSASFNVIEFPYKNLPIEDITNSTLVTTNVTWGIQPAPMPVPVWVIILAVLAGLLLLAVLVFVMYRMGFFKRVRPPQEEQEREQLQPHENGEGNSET
Sequence (P18084 24-799): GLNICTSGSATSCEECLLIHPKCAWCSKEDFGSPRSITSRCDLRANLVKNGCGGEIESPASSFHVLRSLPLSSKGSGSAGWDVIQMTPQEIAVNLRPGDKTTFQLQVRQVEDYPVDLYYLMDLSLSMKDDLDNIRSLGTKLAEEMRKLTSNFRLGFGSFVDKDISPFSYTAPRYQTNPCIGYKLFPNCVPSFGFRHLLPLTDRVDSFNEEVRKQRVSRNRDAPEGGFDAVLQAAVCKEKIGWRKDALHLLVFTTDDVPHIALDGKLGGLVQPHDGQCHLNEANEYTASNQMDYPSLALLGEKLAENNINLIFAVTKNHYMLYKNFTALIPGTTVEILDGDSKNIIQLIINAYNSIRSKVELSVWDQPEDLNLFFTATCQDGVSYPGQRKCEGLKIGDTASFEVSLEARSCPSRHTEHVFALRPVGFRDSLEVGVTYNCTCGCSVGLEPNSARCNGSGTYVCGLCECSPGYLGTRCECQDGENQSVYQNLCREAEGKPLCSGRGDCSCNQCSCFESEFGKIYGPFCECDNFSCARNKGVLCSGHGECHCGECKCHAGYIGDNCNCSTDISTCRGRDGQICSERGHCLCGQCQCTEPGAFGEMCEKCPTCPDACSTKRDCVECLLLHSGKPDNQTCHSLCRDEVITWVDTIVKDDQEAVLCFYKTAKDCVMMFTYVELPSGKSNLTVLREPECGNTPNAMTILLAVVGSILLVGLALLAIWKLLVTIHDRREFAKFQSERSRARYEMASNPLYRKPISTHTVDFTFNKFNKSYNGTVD
Assay: Evaluation of integrin binding property (surface plasmon resonance, Biacore 3000, immobilized cyclic peptide)
Details: SPR, 25° C., HEPES buffer with 5 mM magnesium chloride, integrin 30-1,000 nM; read-out: Performance evaluation: Binding activity (dissociation constant between the cyclic peptide and human integrin αvβ5)
Source text: […]
Starred links: 1 amine or outer side, 2 acyl side, 3 side chain; linkers in the order of their positions; H or OH if unused. Positions of bridges follow the written chain, without caps; N, C: chain ends. Non-standard residues stand in square brackets, D forms with d. Residues, ends and D or L forms follow the SMILES beside them. hCys = N[C@@H](CCS)C(=O)O; Dap = NC[C@H](N)C(=O)O; X1 = O=C(C[*:2])[*:1]

compound	Kd
C[C@H](NC(=O)[C@H](CCCCN)NC(=O)[C@H](CCCCN)NC(=O)[C@@H](N)CCCCN)C(=O)N[C@H]1CNC(=O)CSCC[C@@H](C(=O)N[C@@H](CC(=O)O)C(=O)O)NC(=O)[C@H](CCCNC(=N)N)NC(=O)[C@H](Cc2ccc(O)cc2)NC(=O)[C@H](CC(N)=O)NC(=O)[C@H](CC(=O)O)NC(=O)CNC(=O)[C@H](CCCNC(=N)N)NC(=O)[C@@H]2CCCN2C(=O)[C@H](CCC(=O)O)NC1=O [Cyclic peptide 48, KKKA(Dap(acetyl))EPRGDNYR-(Hcy)-D] (H-KKKA[Dap]EPRGDNYR[hCys]D-OH; linker 5-14 via X1)	< 50 nM

Now examine the next entry.
IN: Tell me the measured Kd of C[C@H](NC(=O)[C@H](CCCCN)NC(=O)[C@H](CCCCN)NC(=O)[C@@H](N)CCCCN)C(=O)N[C@H]1CNC(=O)CSCC[C@@H](C(N)=O)NC(=O)[C@H](CCCNC(=N)N)NC(=O)[C@H](Cc2ccc(O)cc2)NC(=O)[C@H](CC(N)=O)NC(=O)[C@H](CC(=O)O)NC(=O)CNC(=O)[C@H](CCCNC(=N)N)NC(=O)[C@@H]2CCCN2C(=O)[C@H](CCC(=O)O)NC1=O [Cyclic peptide 53, KKKA(Dap(acetyl))EPRGDNYR-(Hcy)] (H-KKKA[Dap]EPRGDNYR[hCys]-NH2; linker 5-14 via X1) , please.
OUT: 50 to 100 nM

---

Entries and their measured Kd follow.
Target: human integrin αvβ5 (Homo sapiens, UniProt P06756+P18084)
Assay: Evaluation of integrin binding property (surface plasmon resonance, Biacore 3000, immobilized cyclic peptide)
Details: surface plasmon resonance, immobilized cyclic peptide, human integrin αvβ5; read-out: Binding activity (integrin binding property, dissociation constant rank)
Starred links: 1 amine or outer side, 2 acyl side, 3 side chain; linkers in the order of their positions; H or OH if unused. Positions of bridges follow the written chain, without caps; N, C: chain ends. Non-standard residues stand in square brackets, D forms with d. Residues, ends and D or L forms follow the SMILES beside them. Pen = CC(C)(S)[C@H](N)C(=O)O; hCys = N[C@@H](CCS)C(=O)O; Dab = NCC[C@H](N)C(=O)O; X2 = O=C(C[*:1])[*:2]

molecule	observedResult
C[C@H](NC(=O)[C@@H]1CCNC(=O)CSCC[C@H](NC(=O)[C@H](C)NC(=O)[C@H](CCCCN)NC(=O)[C@H](CCCCN)NC(=O)[C@@H](N)CCCCN)C(=O)N[C@@H]([C@@H](C)O)C(=O)N2CCC[C@H]2C(=O)N[C@@H](CCCNC(=N)N)C(=O)NCC(=O)N[C@@H](CC(=O)O)C(=O)N[C@@H]([C@@H](C)O)C(=O)N[C@@H](Cc2ccccc2)C(=O)N[C@@H](C)C(=O)N1)C(=O)O [Cyclic peptide 160, KKKA-(Hcy)-TPRGDTFA(Dab(acetyl))A] (H-KKKA[hCys]TPRGDTFA[Dab]A-OH; linker 5-14 via X2)	< 50 nM

Now examine the next entry.
IN: Tell me the measured Kd of CC[C@H](C)[C@@H]1NC(=O)[C@@H](NC(=O)CNC(=O)[C@H](CCCCN)NC(=O)[C@H](CCCCN)NC(=O)[C@@H](N)CCCCN)C(C)(C)SCC(=O)NCC[C@@H](C(=O)N[C@@H](C)C(=O)O)NC(=O)[C@H](CCCNC(=N)N)NC(=O)[C@H](Cc2ccccc2)NC(=O)[C@H]([C@@H](C)O)NC(=O)[C@H](CC(=O)O)NC(=O)CNC(=O)[C@H](CCCNC(=N)N)NC(=O)[C@@H]2CCCN2C1=O [Cyclic peptide 129, KKKG-(Pen)-IPRGDTFR(Dab(acetyl))A] (H-KKKG[Pen]IPRGDTFR[Dab]A-OH; linker 5-14 via X2) , please.
OUT: 50 to 100 nM
